Assay: self-splicing fitness, log relative to wild type (ln ratio); higher = more splicing; Tetrahymena group I intron in knt gene, E. coli kanamycin selection, DiMSum; sequences stand for … in CUCUCU…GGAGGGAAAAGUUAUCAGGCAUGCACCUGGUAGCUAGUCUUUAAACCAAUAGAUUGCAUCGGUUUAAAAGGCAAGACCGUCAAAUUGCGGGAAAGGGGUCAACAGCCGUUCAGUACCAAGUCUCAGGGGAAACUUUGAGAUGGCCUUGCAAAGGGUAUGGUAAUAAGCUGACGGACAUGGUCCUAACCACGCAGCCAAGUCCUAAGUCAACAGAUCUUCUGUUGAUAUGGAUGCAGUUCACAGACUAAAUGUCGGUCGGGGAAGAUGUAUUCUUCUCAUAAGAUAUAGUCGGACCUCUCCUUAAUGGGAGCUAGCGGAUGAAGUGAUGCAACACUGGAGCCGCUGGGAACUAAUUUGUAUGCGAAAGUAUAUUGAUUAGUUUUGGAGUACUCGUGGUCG;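 also: selection with 25 µg/mL kanamycin versus none on LB agar overnight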
Details: 30 °C
ASSAY READOUT: self-splicing fitness (ln)

Worked cases, answers included:
# SEQUENCE, RESULT
data = [
    ("CGUCAGCAAUAUUACGUAAG", 0.214),
    ("CGCCAGCAAUAUUACGUAUU", -3.2),
    ("CGAAAGCAAUAUUACGAGUC", -2.98),
    ("UAACAGCAAUAUUACGGGAC", -4.36),
    ("UCGGAGCAAUAUUACGAGGA", -3.64),
    ("AUGCAGCAAUAUUACGAAUC", -3.82),
    ("CACAAGCAAUAUUACGCGGU", -3.66),
]

With those in mind, consider the next sequence.
IN: # self-splicing fitness (ln) lookup, item GCCUAGCAAUAUUACGUCUU
OUT: -1.54
